- Test system: LG0567-F671-PDC multi-cell spheroid viability;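 note: viability read after 7 days of drug exposure; 100% = DMSO vehicle control luminescence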
- protocol notes: Anticancer human tumor LG0567-F671-PDC patient-derived lung adenocarcinoma cell line growth inhibition [IpAb]
- test context: second compound 0.316 µM; first compound 0.001 µM; stronger effect = lower value
- Experimental: Combinatorial screen of targeted agents with ipatasertib and abemaciclib in multi-cell type tumor spheroids […] Compounds. […] If the clinical Cmax for an agent had not been determined, the highest concentration tested was 10 microM. NCI60 Cell Culture. […] The optimal seeding densities for each of the cell lines at each time point assessed were determined prior to performing the concentration response studies. […]
recorded metric: viability, T/C

• Cn1ncnc1[C@H]1c2n[nH]c(=O)c3cc(F)cc(c23)N[C@@H]1c1ccc(F)cc1 + CC(C)NCC(C(=O)N1CCN(c2ncnc3c2C(C)CC3O)CC1)c1ccc(Cl)cc1 = 70.5%
• CC(C)n1nc(-c2ccc3oc(N)nc3c2)c2c(N)ncnc21 + CCN1CCN(Cc2ccc(Nc3ncc(F)c(-c4cc(F)c5nc(C)n(C(C)C)c5c4)n3)nc2)CC1 = 53.2%
• CC(C)n1nc(-c2ccc3oc(N)nc3c2)c2c(N)ncnc21 + CC(C)NCC(C(=O)N1CCN(c2ncnc3c2C(C)CC3O)CC1)c1ccc(Cl)cc1 = 76%
• Cn1ncnc1[C@H]1c2n[nH]c(=O)c3cc(F)cc(c23)N[C@@H]1c1ccc(F)cc1 + CCN1CCN(Cc2ccc(Nc3ncc(F)c(-c4cc(F)c5nc(C)n(C(C)C)c5c4)n3)nc2)CC1 = 72.2%
